System: Zika virus NS2B-NS3 protease (unlinked)
MEASUREMENT_DESCRIPTION: Optimization of GU AMC qHTS for Zika virus inhibitors: Unlinked NS2B-NS3 protease assay (AID 1347151); note: nearly all actives have a fitted effect of over 80% in size
CONDITION_DETAILS: recombinant ZIKV NS2B-NS3 protease, fluorogenic AMC substrate; series mostly up to 52.5 µM
Inconclusive results are not listed. Calls of active or inactive are those of the source. Calls come from the whole dose curve; as a rule, active = well fitted inhibition curve with a large enough effect; inconclusive = small, poorly fitted or top-dose-only effect; inactive = no such curve, though single readings can be large or run the other way.
Form entry, call: pick from active, inactive

Query: Would you mind telling me which call this test gave O=C1NC(=O)c2c1c(-c1ccccc1)cc1[nH]c3ccc(O)cc3c21 ?
Result: inactive

Query: Then what about the molecule c1ccc(-c2ccccn2)nc1 ?
Result: inactive

Query: Then what about the molecule Cn1cc(C2=C(c3ccc(Cl)cc3Cl)C(=O)NC2=O)c2ccccc21 ?
Result: inactive

Query: Then what about the molecule CCCCCCCCCCCCCCCCCC(=O)OC(CC(=O)O)C[N+](C)(C)C (configuration not stated) ?
Result: inactive

Query: Then what about the molecule CC(C)NC[C@H](O)COc1cccc2[nH]ccc12 ?
Result: inactive

Query: Then what about the molecule CC(C)(NS(=O)(=O)c1ccc(Oc2ccc(F)cc2)cc1)C(=O)NO ?
Result: inactive

Query: Then what about the molecule CNCC[C@H](Oc1ccc(C(F)(F)F)cc1)c1ccccc1 ?
Result: inactive

Query: Then what about the molecule Fc1ccc(C(OCCCc2cnc[nH]2)c2ccc(F)cc2)cc1 ?
Result: inactive

Query: Then what about the molecule C=C[C@H]1CN2CC[C@@H]1C[C@@H]2[C@@H](O)c1ccnc2ccc(OC)cc12 ?
Result: active

Query: Then what about the molecule Oc1ccccc1O ?
Result: inactive

Query: Then what about the molecule CC(C)c1cccc(C(C)C)c1N1C(=O)c2ccc(O)cc2C1=O ?
Result: inactive

Query: Then what about the molecule NC(N)=NC(=O)c1nc(Cl)c(N2CCCCCC2)nc1N ?
Result: inactive
